assay: Quantitative High-Throughput drug screen in 47 multiple myeloma cell lines against the NCATS MIPE library collection: JIM3_ECACC cell viability assay (AID 1918963; further: nearly all actives have a fitted effect of over 35% in size); settings: JIM3 myeloma viability, CellTiter-Glo ATP, 48 h; series mostly up to 45.8 µM
Records with an inconclusive call do not appear. The source made the active and inactive calls. The call rests on the fitted dose curve; in most records, active means well fitted cell-killing curve with a large enough effect; inconclusive means small, poorly fitted or top-dose-only effect; inactive means no such curve, though single readings can be large or run the other way.
// allowed return values: active, inactive

COc1cc2nccc(Oc3ccc(NC(=O)Nc4ccc(F)cc4F)c(F)c3)c2cc1OC: inactive
CC(C)CNc1ccnc(NCc2csc(-c3ccccc3)n2)n1: active
CN(C)CCOc1ccc(-c2nc(-c3ccc4c(c3)CCC4=NO)c(-c3ccncc3)[nH]2)cc1: active
CC(C)(CO)[C@@H](O)C(=O)NCCC(=O)O: inactive
CC[C@@H]([C@H](C)O)n1ncn(-c2ccc(N3CCN(c4ccc(OCC5CO[C@@](Cn6cncn6)(c6ccc(F)cc6F)C5)cc4)CC3)cc2)c1=O (stereo partly drawn): active

// query Recorded test call requested for CCCCCOC(=O)Nc1nc(=O)n([C@@H]2O[C@H](C)[C@@H](O)C2O)cc1F (stereo partly drawn)
// result inactive

// query Recorded test call requested for "COc1cc2c(cc1OC)CC(=O)N(CCCN(C)C[C@H]1Cc3cc(OC)c(OC)cc31)CC2"
// result inactive

// query Recorded test call requested for "C=CC[N+]1([C@H]2C[C@H]3[C@@H]4CC[C@H]5C[C@H](O)[C@@H](N6CCOCC6)C[C@]5(C)[C@@H]4CC[C@]3(C)[C@H]2OC(C)=O)CCCC1"
// result inactive

====

assay: Quantitative High-Throughput drug screen in 47 multiple myeloma cell lines against the NCATS MIPE library collection: NCIH929_DSMZ cell viability assay (AID 1918978); conditions: NCI-H929 myeloma viability, CellTiter-Glo ATP, 48 h; series mostly up to 45.8 µM; further: nearly all actives have a fitted effect of over 35% in size
Inconclusive results are not listed. Calls of active or inactive are those of the source. Calls come from the whole dose curve; as a rule, active = well fitted cell-killing curve with a large enough effect; inconclusive = small, poorly fitted or top-dose-only effect; inactive = no such curve, though single readings can be large or run the other way.
// allowed return values: y for active, n for inactive

Would you please look over these solved cases?
CN(C)c1nc(Cc2ccc(NC(=O)c3ccc(C(F)(F)F)cc3)cc2)nc(N(C)C)c1CC(=O)O: n
O=C(NCCCCN1CCOCC1)c1cc2ccccc2o1: n
CC[C@]1(O)C[C@H]2CN(CCC3=c4ccccc4=N[C]3[C@@](C(=O)OC)(c3cc4c(cc3OC)N(C)[C@H]3[C@@](O)(C(N)=O)[C@H](O)[C@]5(CC)C=CCN6CC[C@]43[C@@H]65)C2)C1: y

// query Recorded test call requested for "CCc1cc(-c2n[nH]c(C)c2-c2ccc3c(c2)OCCO3)c(O)cc1O"
// result y

====

test system: Zika virus NS2B-NS3 protease (unlinked complex); experiment: Primary screen GU Rhodamine qHTS for Zika virus inhibitors: Unlinked NS2B-NS3 protease assay (AID 1347159); conditions: Recombinant ZIKV NS2B-NS3 protease, Rhodamine110 substrate fluorescence; series mostly up to 107 µM; further: nearly all actives have a fitted effect of over 60% in size
Results filed as inconclusive are left out. Calls of active or inactive are those of the source. The call rests on the fitted dose curve; in most records, active means well fitted inhibition curve with a large enough effect; inconclusive means small, poorly fitted or top-dose-only effect; inactive means no such curve, though single readings can be large or run the other way.
// allowed return values: active, inactive

Would you please look over these solved cases?
Cc1nc2c([nH]1)CCN(C(=O)c1ccc(NC(=O)c3ccccc3-c3ccccc3)cc1)c1ccccc1-2: inactive
N#CC1(c2cccc(C(=O)Nc3cc(Oc4ccc5nc(NC(=O)C6CC6)sc5n4)ccc3F)c2Cl)CC1: active
CC1CCN(c2cc(N3CCN(C)CC3)ccc2NC(=O)c2cc(C#N)c[nH]2)CC1: inactive
COc1ccc(-c2nc3ccc(C4=NNC(=O)CC4C)cc3[nH]2)cc1 (centres undefined): inactive
O=S(=O)(O)c1ccc2cc(N=Nc3cc(S(=O)(=O)O)c4cccnc4c3O)ccc2c1: active

// query Recorded test call requested for "COc1nccc(-c2c(-c3ccc(F)cc3)ncn2C2CCNCC2)n1"
// result inactive

// query Recorded test call requested for "Nc1ccc(-c2ccc3ncc4ccc(=O)n(-c5cccc(C(F)(F)F)c5)c4c3c2)cn1"
// result inactive

// query Recorded test call requested for "CC(=O)Nc1cccc(-n2c(=O)n(C3CC3)c(=O)c3c(Nc4ccc(I)cc4F)n(C)c(=O)c(C)c32)c1"
// result inactive

// query Recorded test call requested for "COc1ccc(-c2cc3nccn3c(Nc3ncccc3C(N)=O)n2)cc1OC"
// result inactive

====

Test: qHTS of pediatric cancer cell lines to identify multiple opportunities for drug repurposing: Confirmatory screen for DAOY cells (AID 1347114); further: nearly all actives have a fitted effect of over 65% in size; further: potency means the concentration at half of the fitted maximal effect
Details: DAOY medulloblastoma cells viability, cytotoxicity qHTS; series mostly up to 45.9 µM
Method: Drug repurposing or repositioning has been offered as a strategy for drug development in oncology programs. […] [1] Shen, M et al. Quantitative high-throughput phenotypic screening of pediatric cancer cell lines identifies multiple opportunities for drug repurposing. […] Cells were assayed in growth media at a density of 500-1,000 cells/well. […] After a 15 min incubation at room temperature, samples were analyzed for luminescence intensity using a ViewLux High-throughput CCD imager equipped with clear filters.
Results filed as inconclusive are left out. Active and inactive are the calls of the source. The call rests on the fitted dose curve; in most records, active means well fitted cell-killing curve with a large enough effect; inconclusive means small, poorly fitted or top-dose-only effect; inactive means no such curve, though single readings can be large or run the other way.
assay.metric: Potency

Cc1ccc2c(c1)C(=O)[C@]1(O)CCN(c3ccccc3)C1=N2: inactive
Nc1ccc(-c2ccc3ncc4ccc(=O)n(-c5cccc(C(F)(F)F)c5)c4c3c2)cn1: 3690 nM (active)
CC1(C)CC(=O)c2c(C(F)(F)F)nn(-c3ccc(C(N)=O)c(NC4CCC(O)CC4)c3)c2C1 (configuration not stated): inactive
CC(C)CN(C[C@H](O)[C@H](Cc1ccccc1)NC(=O)O[C@H]1CCOC1)S(=O)(=O)c1ccc(N)cc1: inactive
COC(=O)[C@H](c1ccccc1Cl)N1CCc2sccc2C1: inactive

For every item in the list below, what is its measured Potency?
1. Cc1ccc(C(=O)N(CCCN)[C@@H](c2nc3cc(Cl)ccc3c(=O)n2Cc2ccccc2)C(C)C)cc1
2. C=CC(=O)Nc1cccc(Sc2nc(Nc3ccc(N4CCN(C)CC4)cc3)ncc2Cl)c1
3. NC(N)=Nc1nc(CSCCC(N)=NS(N)(=O)=O)cs1
4. Cc1cnc(-c2cc(N3CCN(C(=O)CCS(C)(=O)=O)CC3)ncc2Cl)c(C)c1
5. CC1=C[C@@H]2[C@@H]([C@@H](O)C[C@@]3(C)[C@H]2C[C@@H](C)[C@]3(O)C(=O)CO)[C@@]2(C)Cc3cnn(-c4ccccc4)c3C=C12
6. OCCn1cc(-c2ccc3c(c2)CCC3=NO)c(-c2ccncc2)n1
7. CC1(C)OC2CC3C4CC(F)C5=CC(=O)C=CC5(C)C4C(O)CC3(C)[C@]2(C(=O)CO)O1 (some centres not stated)

// result
["12 nM (active)", "23300 nM (active)", "inactive", "inactive", "inactive", "inactive", "inactive"]

For every item in the list below, what is its measured Potency?
1. CC(C)CN(C[C@@H](O)[C@H](Cc1ccccc1)NC(=O)O[C@H]1CO[C@H]2OCC[C@H]21)S(=O)(=O)c1ccc(N)cc1
2. CC(C)n1c(C=C[C@H](O)C[C@H](O)CC(=O)O)c(-c2ccc(F)cc2)c2ccccc21
3. CC[C@]1(O)C[C@H]2CN(CCC3=c4ccccc4=N[C]3[C@@](C(=O)OC)(c3cc4c(cc3OC)N(C)[C@H]3[C@@](O)(C(N)=O)[C@H](O)[C@]5(CC)C=CCN6CC[C@]43[C@@H]65)C2)C1

// result
1: inactive; 2: 3690 nM (active); 3: 261 nM (active)

For every item in the list below, what is its measured Potency?
1. CCC(=O)N1CCN(c2ccc(-n3c(=O)ccc4cnc5ccc(-c6cnc7ccccc7c6)cc5c43)cc2C(F)(F)F)CC1
2. CSc1cccc(Nc2ncc3cc(-c4c(Cl)cccc4Cl)c(=O)n(C)c3n2)c1

// result
inactive
1170 nM (active)

====

test: Quantitative High-Throughput drug screen in 47 multiple myeloma cell lines against the NCATS MIPE library collection: Delta47_JCRB cell viability assay (AID 1918925; further: nearly all actives have a fitted effect of over 45% in size); conditions: Delta47 myeloma viability, CellTiter-Glo ATP, 48 h; series mostly up to 45.8 µM
Results filed as inconclusive are left out. Calls of active or inactive are those of the source. Calls come from the whole dose curve; as a rule, active = well fitted cell-killing curve with a large enough effect; inconclusive = small, poorly fitted or top-dose-only effect, or effect the other way; inactive = no such curve, though single readings can be large or run the other way.
// allowed return values: active, inactive

// query Recorded test call requested for "N#CC(=C1Nc2ccccc2S1)c1ccnc(OCc2ccc(CN3CCOCC3)cc2)n1"
// result active

// query Recorded test call requested for "Cc1nc(C(=O)NCC(=O)O)c(O)c2ccc(Oc3ccccc3)cc12"
// result inactive

// query Recorded test call requested for N#CC(c1ccnc(NCCc2cccnc2)n1)c1nc2ccccc2s1 (stereo not given)
// result active

// query Recorded test call requested for COc1cccc(OC)c1-c1cc(C(=O)NC2(C(=O)O)C3CC4CC(C3)CC2C4)nn1-c1ccnc2cc(Cl)ccc12 (stereo not given)
// result inactive

// query Recorded test call requested for "O=C(NC[C@H](O)CO)c1ccncc1Nc1ccc(I)cc1F"
// result active

====

assay: Quantitative High-Throughput drug screen in 47 multiple myeloma cell lines against the NCATS MIPE library collection: Karpas25_ECACC cell viability assay (AID 1918968; further: nearly all actives have a fitted effect of over 35% in size); details: Karpas25 myeloma viability, CellTiter-Glo ATP, 48 h; series mostly up to 45.8 µM
Records with an inconclusive call do not appear. Calls of active or inactive are those of the source. Calls follow the shape of the dose curve; as a rule, active = well fitted cell-killing curve with a large enough effect; inconclusive = small, poorly fitted or top-dose-only effect, or effect the other way; inactive = no such curve, though single readings can be large or run the other way.
// allowed return values: Y for active, N for inactive

Would you please look over these solved cases?
Cc1ccccc1C(=O)c1ccc(Nc2ccc(Br)cc2N)cc1Cl: Y
Nc1nc(Cl)nc2c1ncn2[C@@H]1O[C@H](CO)[C@@H](O)[C@H]1F: Y
CCOc1ccccc1N=Nc1c(C)[nH]n(-c2nc(-c3ccccc3)cs2)c1=O: Y
CCOC(=O)[C@H](CCc1ccccc1)N[C@@H](C)C(=O)N1CCCC1C(=O)O (some centres undefined): N

// query Recorded test call requested for NCC1CCC(C(=O)O)CC1 (centres undefined)
// result N

// query Recorded test call requested for "COc1cc2c(cc1OC)CC(=O)N(CCCN(C)C[C@H]1Cc3cc(OC)c(OC)cc31)CC2"
// result Y

// query Recorded test call requested for "CC(C)=CCCC(C)=CCCC(C)=CCCC(C)=CCCC(C)=CCCC(C)=CCCC(C)=CCCC(C)=CCCC(C)=CCO"
// result N

// query Recorded test call requested for "O=C1CCCC(=O)C1C(=O)c1ccc(C(F)(F)F)cc1[N+](=O)[O-]"
// result N

// query Recorded test call requested for "CCC[C@@H](NC(=O)[C@@H]1[C@H]2CCC[C@@H]2CN1C(=O)[C@@H](NC(=O)[C@@H](NC(=O)c1cnccn1)C1CCCCC1)C(C)(C)C)C(=O)C(=O)NC1CC1"
// result Y
